ASSAY OVERVIEW: chemical genetic growth profiling, strain panel (AID 1159580);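 further: tested at 20 µM; growth read once vehicle control cultures reached saturation at 30 °C; 1 = growth at the plate median or of vehicle wells; lower values mean less growth of the strain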
CONDITION INFO: S. cerevisiae deletion strains, growth OD, locus YDL101C, strain DUN1, hits give low values
In all, about 5,500 compounds went through this assay and about 2,000 (36%) were called active. About 18% were inconclusive and are not listed. This is one part of the list.
Would you mind telling me the reported normalized growth of each entry?
// print number alone

**Query** What value of normalized growth has been recorded for this entry: Cc1cc(N=C(N)N=C(N)N)no1
**Result** 1.02

**Query** What value of normalized growth has been recorded for this entry: CC(=O)CCCCn1c(=O)c2c(ncn2C)n(C)c1=O
**Result** 1.02

**Query** What value of normalized growth has been recorded for this entry: CCCc1ccc(-c2nc(-c3ccc(C)cc3)no2)cc1
**Result** 0.971

**Query** What value of normalized growth has been recorded for this entry: O=C(c1ccccc1)c1ccc2n1CCC2C(=O)O (configuration not stated)
**Result** 1

**Query** What value of normalized growth has been recorded for this entry: COc1cc(OC)c2c(OC)c(-c3ccc4c(c3)OCO4)c(=O)oc2c1
**Result** 0.982

**Query** What value of normalized growth has been recorded for this entry: COc1ccc(NS(=O)(=O)c2ccc(N)cc2)nn1
**Result** 1.03

**Query** What value of normalized growth has been recorded for this entry: Cn1cnc2c1c(=O)[nH]c(=O)n2C
**Result** 1.02

**Query** What value of normalized growth has been recorded for this entry: CC[C@H]1OC(=O)[C@H](C)[C@@H](O[C@H]2C[C@@](C)(OC)[C@@H](O)[C@H](C)O2)[C@H](C)[C@@H](O[C@@H]2O[C@H](C)C[C@H](N(C)C)[C@H]2O)[C@](C)(O)C[C@@H](C)/C(=N/OCOCCOC)[C@H](C)[C@@H](O)[C@]1(C)O
**Result** 0.991

**Query** What value of normalized growth has been recorded for this entry: COc1cccc(C2SCc3cc(C)c(C)cc3CS2)c1O
**Result** 0.992

**Query** What value of normalized growth has been recorded for this entry: Cc1onc(-c2c(Cl)cccc2Cl)c1C(=O)N1CCN(c2ncnc3scc(-c4ccccc4)c23)CC1
**Result** 0.979

**Query** What value of normalized growth has been recorded for this entry: Cn1c(=O)[nH]c2nc[nH]c2c1=O
**Result** 1.01

**Query** What value of normalized growth has been recorded for this entry: Cc1csc2ncnc(N3CCN(C(=S)Nc4ccc(C(F)(F)F)cc4)CC3)c12
**Result** 0.985
